This collection of values is drawn from BindingDB's records for doi:10.1016/j.bmcl.2007.05.099.

- method.notes: Inhibition of Mycobacterium smegmatis arabinosyl transferase assessed as [14C]arabinofuranose incorporation
pIC50: −log10 of the molar value.
readout: pIC50

• O[C@H]1[C@H](O)[C@@H](CN(CC2CCCCC2)CC2CCCCC2)O[C@@H]1CC[C@H]1O[C@H](CN(CC2CCCCC2)CC2CCCCC2)[C@@H](O)[C@@H]1O = 2.46
• O[C@@H]1[C@@H](OC[C@H]2O[C@H](CN(CC3CCCCC3)CC3CCCCC3)[C@@H](O)[C@@H]2O)O[C@H](CN(CC2CCCCC2)CC2CCCCC2)[C@H]1O = 2.55
• O[C@H]1[C@H](O)[C@@H](CN(CC2CCCCC2)CC2CCCCC2)O[C@@H]1/C=C/[C@H]1O[C@H](CN(CC2CCCCC2)CC2CCCCC2)[C@@H](O)[C@@H]1O = 2.38
